Measured viability, T/C, listed per entry for reference.
Tested on: 556581-035-R-J1-PDC complex spheroid growth
RUN_DESCRIPTION: Anticancer human tumor 556581-035-R-J1-PDC patient-derived ovarian carcinoma cell line growth inhibition [AhR]
CONDITION_CONTEXT: second compound 0.316 µM; first compound 0.03 µM; hits give low values
READOUT_KIND: viability, T/C (%)

[[record]]
compound = "CC(C)CC(NC(=O)C(Cc1ccccc1)NC(=O)c1cnccn1)B(O)O (stereo unspecified) + Cc1cncc(-c2nc(NCCc3c[nH]c4ccccc34)c3ncn(C(C)C)c3n2)c1"
readout_kind = "viability, T/C"
value_measured = 1.1

[[record]]
compound = "CCN(c1cc(-c2ccc(CN3CCOCC3)cc2)cc(C(=O)NCc2c(C)cc(C)[nH]c2=O)c1C)C1CCOCC1 + Cc1ccccc1N=Nc1ccc(NC(=O)c2ccnn2C)c(C)c1"
readout_kind = "viability, T/C"
value_measured = 98.2

[[record]]
compound = "Nc1ncn(C2CC(O)C(CO)S2)c(=O)n1 (stereo unspecified) + Cc1ccccc1N=Nc1ccc(NC(=O)c2ccnn2C)c(C)c1"
readout_kind = "viability, T/C"
value_measured = 95.9

[[record]]
compound = "CCN(c1cc(-c2ccc(CN3CCOCC3)cc2)cc(C(=O)NCc2c(C)cc(C)[nH]c2=O)c1C)C1CCOCC1 + CC(CO)NC(=O)c1cc(-c2ccc(Cl)cc2)nn(-c2cnn(C)c2)c1=O"
readout_kind = "viability, T/C"
value_measured = 91.2

[[record]]
compound = "CC(C)CC(NC(=O)C(Cc1ccccc1)NC(=O)c1cnccn1)B(O)O (stereo unspecified) + CC(CO)NC(=O)c1cc(-c2ccc(Cl)cc2)nn(-c2cnn(C)c2)c1=O"
readout_kind = "viability, T/C"
value_measured = 2.26

[[record]]
compound = "O=C(C=Cn1cnc(-c2cc(C(F)(F)F)cc(C(F)(F)F)c2)n1)NNc1cnccn1 + CC(CO)NC(=O)c1cc(-c2ccc(Cl)cc2)nn(-c2cnn(C)c2)c1=O"
readout_kind = "viability, T/C"
value_measured = 93


====

Test system: 556581-035-R-J1-PDC complex spheroid growth
RUN_DESCRIPTION: Anticancer human tumor 556581-035-R-J1-PDC cell line growth inhibition [AhR];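 further: compound exposure lasted 7 days; 100% = DMSO vehicle control growth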
CONDITION_CONTEXT: second compound 0.316 µM; first compound 0.1 µM; hits give low values
Measured viability, T/C, listed per entry for reference.
READOUT_KIND: viability, T/C (%)

[[record]]
compound = "CC1COCCN1c1cc(-c2ccnn2C)c2ccnc(-c3ccn[nH]3)c2n1 (stereo unspecified) + CC(CO)NC(=O)c1cc(-c2ccc(Cl)cc2)nn(-c2cnn(C)c2)c1=O"
readout_kind = "viability, T/C"
value_measured = 89.3

[[record]]
compound = "COc1cccc2c1C(=O)c1c(O)c3c(c(O)c1C2=O)CC(O)(C(=O)CO)CC3OC1CC(N)C(O)C(C)O1 (stereo unspecified) + CC(CO)NC(=O)c1cc(-c2ccc(Cl)cc2)nn(-c2cnn(C)c2)c1=O"
readout_kind = "viability, T/C"
value_measured = 79.3

[[record]]
compound = "CC(C)c1c(-c2ccccc2)nc2c(C#N)c[nH]n2c1=O + CC(CO)NC(=O)c1cc(-c2ccc(Cl)cc2)nn(-c2cnn(C)c2)c1=O"
readout_kind = "viability, T/C"
value_measured = 105

[[record]]
compound = "CC[C@@]1(O)C(=O)OCc2c1cc1n(c2=O)Cc2cc3c(CN(C)C)c(O)ccc3nc2-1 + Cc1cncc(-c2nc(NCCc3c[nH]c4ccccc34)c3ncn(C(C)C)c3n2)c1"
readout_kind = "viability, T/C"
value_measured = 62.3

[[record]]
compound = "Cn1ncnc1C1c2n[nH]c(=O)c3cc(F)cc(c23)NC1c1ccc(F)cc1 (stereo unspecified) + Cc1cncc(-c2nc(NCCc3c[nH]c4ccccc34)c3ncn(C(C)C)c3n2)c1"
readout_kind = "viability, T/C"
value_measured = 86.6

[[record]]
compound = "CC1COCCN1c1cc(C2(S(C)(=N)=O)CC2)nc(-c2ccnc3[nH]ccc23)n1 (stereo unspecified) + CC(CO)NC(=O)c1cc(-c2ccc(Cl)cc2)nn(-c2cnn(C)c2)c1=O"
readout_kind = "viability, T/C"
value_measured = 113

